# Tested on: Escherichia coli TOP10;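 further: peptides expressed intracellularly from a pBAD plasmid library in pooled LB shake-flask culture, induced with 0.3% L-arabinose, DNA abundance read by NGS, three biological replicates, DESeq2 with apeglm shrinkage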
# test: shrunken log2 fold change of peptide-encoding DNA abundance (4.5 h post-induction vs induction); higher = less antimicrobial activity (less host growth inhibition)
# recorded conditions: time post-induction: 4.5 h; library: site-saturation at positions 5, 18, 19, 20
Note: every record was labeled by where its shrunken log2 fold change sits among small value (below -0.1), mid value (-0.1 to below 0.3), large value (0.3 or more)

Task: Textbook exercise: identify the category of the sequence given here, RRIRTRPPRLPRPRPRPGWKPRP , according to its measured value.
Result: mid value

Task: Category of RRIRARPPRLPRPRPRPNHGPRP , please.
Result: mid value

Task: Please report the category associated with RRIRNRPPRLPRPRPRPRHYPRP , nothing else.
Result: small value

Task: Lab note: which band did RRIRERPPRLPRPRPRPWINPRP land in?
Result: small value

Task: Could you tell me which band RRIRVRPPRLPRPRPRPTFHPRP belongs to?
Result: mid value

Task: Which shrunken log2 fold change category applies to RRIRPRPPRLPRPRPRPKPSPRP here?
Result: large value

Task: Bin? RRIRARPPRLPRPRPRPMRFPRP
Result: large value

Task: Which category fits this record: RRIRPRPPRLPRPRPRPGDRPRP
Result: mid value

Task: Into which bin does this sequence go? RRIRDRPPRLPRPRPRPMIWPRP
Result: mid value

Task: Which shrunken log2 fold change category applies to RRIRYRPPRLPRPRPRPAEMPRP here?
Result: small value

Task: Entry RRIRNRPPRLPRPRPRPLCEPRP belongs to which category?
Result: small value

Task: State the class of the sequence shown: RRIRQRPPRLPRPRPRPTCIPRP
Result: mid value

Task: In plain terms, what class is RRIRKRPPRLPRPRPRPRMTPRP ?
Result: large value

Task: // return the class label for RRIRHRPPRLPRPRPRPIAAPRP
Result: mid value

Task: Bin this entry: RRIRPRPPRLPRPRPRPTKRPRP
Result: mid value
